Below: a set of entries, each annotated with reported d(C3,CA1).
Target System: MASP-2 CCP2-SP (Homo sapiens (Human), UniProt O00187)
Sequence (O00187 445-686): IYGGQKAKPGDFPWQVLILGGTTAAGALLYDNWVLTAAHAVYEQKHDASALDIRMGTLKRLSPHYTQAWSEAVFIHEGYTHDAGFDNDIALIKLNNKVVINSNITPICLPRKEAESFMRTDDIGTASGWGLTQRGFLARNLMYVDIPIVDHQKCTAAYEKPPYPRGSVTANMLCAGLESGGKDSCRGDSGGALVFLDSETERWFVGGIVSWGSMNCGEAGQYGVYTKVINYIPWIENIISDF
Sequence (O00187 364-432 partner): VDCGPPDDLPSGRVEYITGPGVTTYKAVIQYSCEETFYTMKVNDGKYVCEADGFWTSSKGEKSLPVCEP
Test Summary: MASP-2 co-crystallization, X-ray crystallography and structure analysis (H-bonds, van der Waals contacts)
Set-up: unit not given beside the values
Test Context: Table A5-1 pharmacophore: distance between elements, S2/S1 region
Structures can show the parent of a compound that is named as a salt.
Outcome Measure: d(C3,CA1)

INSERT INTO measurements (compound, outcome_measure, endpoint_result) VALUES
  ('Cc1nc(N)ccc1CNC(=O)C(C)NC(=O)C1CC(c2cccc3ccccc23)CCN1.Cl.Cl (stereo not shown) [1297_6]', 'd(C3,CA1)', 2.86),
  ('Cc1nc(N)ccc1CNC(=O)[C@H](C)NC(=O)[C@H]1C[C@H](Cc2cc(-c3ccccc3)cs2)CN1 [compound 1399, Dihydrochloride]', 'd(C3,CA1)', 2.86),
  ('Cc1nc(N)ccc1CNC(=O)[C@H](C)NC(=O)[C@H]1C[C@H](Cc2ccccc2-c2ccccc2)CN1 [compound 1373, Di-trifluoroacetate salt]', 'd(C3,CA1)', 2.85),
  ('Cc1cccc([C@H]2CN[C@@H](C(=O)N[C@@H](C)C(=O)NCc3ccc(N)nc3C)C2)c1 [compound 1257, Dihydrochloride]', 'd(C3,CA1)', 2.87),
  ('Cc1nc(N)ccc1CNC(=O)[C@H](C)NC(=O)[C@H]1C[C@H](Cc2cccc(Cl)c2)CN1.Cl.Cl [1328_4]', 'd(C3,CA1)', 2.85),
  ('Cc1nc(N)ccc1CNC(=O)[C@H](C)NC(=O)[C@H]1C[C@H](Cc2ccccc2)CN1', 'd(C3,CA1)', 2.84),
  ('Cc1nc(N)ccc1CNC(=O)[C@H](C)NC(=O)[C@H]1C[C@H](Cc2cccc(Cl)c2)CN1.Cl.Cl [1328_3]', 'd(C3,CA1)', 2.85);

---

Target System: MASP-2 CCP2-SP (Homo sapiens (Human), UniProt O00187)
Test Summary: MASP-2 co-crystallization, X-ray crystallography and structure analysis (H-bonds, van der Waals contacts);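 as to Ligand-pharmacophore element distance, pharmacophore element CA5: distance from averaged pharmacophore element to bound ligand; missing value means element absent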
Test Context: Table A4-1; element CA5
Description: This example illustrates the preparation of recombinant MASP-2 protein, based on UniProt O00187, human mannan-binding lectin serine protease 2. Expression constructs for human MASP-2 CCP2-SP and CCP2-SP-6HIS were generated for recombinant expression in E. coli cells. […]
Structures can show the parent of a compound that is named as a salt.
Outcome Measure: Ligand-pharmacophore element distance, pharmacophore element CA5

INSERT INTO results (molecule, endpoint_result) VALUES
  ('C[C@H](NC(=O)[C@H]1C[C@@H](c2ccccc2)CCN1)C(=O)NCc1cc(Cl)ccc1O.Cl [1078_4]', 0),
  ('Cc1nc(N)ccc1CNC(=O)[C@H](C)NC(=O)[C@H]1C[C@H](Cc2ccccc2-c2ccccc2)CN1 [compound 1373, Di-trifluoroacetate salt]', 2.5),
  ('C[C@H](NC(=O)[C@H]1C[C@@H](c2ccccc2)CCN1)C(=O)NCc1cc(Cl)ccc1O.Cl [1078_10]', 0),
  ('C[C@H](NC(=O)[C@H]1C[C@@H](c2ccccc2)CCN1)C(=O)NCc1cc(Cl)ccc1O.Cl [1078_1]', 0),
  ('Cc1nc(N)ccc1CNC(=O)C(C)NC(=O)C1CC(c2cccc3ccccc23)CCN1.Cl.Cl (stereo not shown) [1297_1]', 0),
  ('Cc1nc(N)ccc1CNC(=O)[C@H](C)NC(=O)[C@H]1C[C@H](Cc2ccccc2)CN1 [compound 1304]', 0),
  ('Cc1nc(N)ccc1CNC(=O)[C@H](C)NC(=O)[C@H]1C[C@H](Cc2cccc(-c3ccccc3)c2)CN1 [compound 1406]', 0);
